- Assayed System: Soybean 15-LO (Glycine max, UniProt P08170)
- Construct: purchased Sigma Chemical Co. (St. Louis, Mo.) Type V
- Sequence (P08170 whole entry): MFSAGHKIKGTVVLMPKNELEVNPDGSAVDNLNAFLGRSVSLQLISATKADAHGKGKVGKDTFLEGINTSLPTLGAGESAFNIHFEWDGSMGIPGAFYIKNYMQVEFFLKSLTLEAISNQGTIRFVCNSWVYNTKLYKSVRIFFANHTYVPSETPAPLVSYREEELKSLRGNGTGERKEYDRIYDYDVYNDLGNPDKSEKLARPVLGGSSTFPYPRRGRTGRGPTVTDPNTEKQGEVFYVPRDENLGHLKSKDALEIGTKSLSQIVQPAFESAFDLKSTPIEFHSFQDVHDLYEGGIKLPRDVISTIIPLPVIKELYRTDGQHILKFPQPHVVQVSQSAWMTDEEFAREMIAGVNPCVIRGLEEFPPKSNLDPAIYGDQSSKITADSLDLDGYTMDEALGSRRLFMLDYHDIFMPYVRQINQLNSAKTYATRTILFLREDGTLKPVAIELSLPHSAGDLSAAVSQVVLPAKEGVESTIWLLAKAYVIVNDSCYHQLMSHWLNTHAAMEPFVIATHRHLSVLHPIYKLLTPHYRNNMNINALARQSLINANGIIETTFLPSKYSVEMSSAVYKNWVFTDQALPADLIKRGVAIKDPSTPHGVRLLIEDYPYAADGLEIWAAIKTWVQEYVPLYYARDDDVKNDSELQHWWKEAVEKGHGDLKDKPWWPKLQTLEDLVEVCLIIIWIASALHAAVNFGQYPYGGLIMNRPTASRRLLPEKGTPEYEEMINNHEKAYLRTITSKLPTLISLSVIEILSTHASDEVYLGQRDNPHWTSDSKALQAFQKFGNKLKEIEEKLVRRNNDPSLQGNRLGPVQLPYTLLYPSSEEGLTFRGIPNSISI
- Method: Assay of soybean 15-lipoxygenase (oxygen consumption, Clark oxygen electrode)
- Assay type: biochemical
- Setup Conditions: read-out: Enzyme Activity (Relative ± S.D.)
Measured remaining activity at 25 µM, listed per entry.
Number in %, nothing else.

Compound: CC(CCC(O)C(O)C(O)COC1C(N)C(O)C(O)C1(O)CO)C1CCC2(C)C1CCC1(C)C2CCC2C3(C)CCCC(C)(C)C3CCC21C (stereo not shown) [THBH-Et, tetrahydroxybacteriohopane ether]
remaining activity at 25 µM / %: 151

QUERY: Return remaining activity at 25 µM (reported value) for this compound: CC(=O)OCC(OC(C)=O)C(OC(C)=O)C(CCC(C)C1CCC2(C)C1CCC1(C)C2CCC2C3(C)CCCC(C)(C)C3CCC21C)OC(C)=O (stereo not shown)
RESULT: 89

QUERY: Report remaining activity at 25 µM for C[C@H](CC[C@@H](O)[C@@H](O)[C@@H](O)CO)[C@H]1CC[C@]2(C)[C@H]3CC[C@@H]4[C@@]5(C)CCCC(C)(C)[C@@H]5CC[C@@]4(C)[C@]3(C)CC[C@@H]12 [THBH, tetrahydroxybacteriohopane]
RESULT: 15

QUERY: Hello, please tell me recorded remaining activity at 25 µM for this one: CC(CCC(O)C(O)C(O)COC1OC(CO)C(O)C(O)C1N)C1CCC2(C)C1CCC1(C)C2CCC2C3(C)CCCC(C)(C)C3CCC21C (stereo not shown) [THBH-GA, tetrahydroxybacteriohopane glucosamine]
RESULT: 172
